Assay: Cytotoxicity against human C8166 cells by MTT assay
Format: cell-based
Some molecules, each annotated with its measured CC50.
parameter: CC50

> print(dat)
                           molecular.string  recorded.measurement
1  Cc1cc(S(N)(=O)=O)ccc1NC(=O)COc1ccc(F)cc1Oc1ccc2cccc(F)c2c1                171 µM
2  Cc1cc(S(N)(=O)=O)ccc1NC(=O)COc1ccc(F)cc1Oc1c(C)cc2ccccc2c1Cl               55.6 µM
3  Cc1cc(S(N)(=O)=O)ccc1NC(=O)COc1ccc(F)cc1Oc1ccc2cc(C#N)ccc2c1              > 396 µM
4  Cc1cc(S(N)(=O)=O)ccc1NC(=O)COc1ccc(Cl)cc1Oc1ccc2cc(Br)ccc2c1               31.3 µM

The measured values listed here are drawn from ChEMBL document CHEMBL1806390.
